target: Angiotensin II receptor (Rattus norvegicus) (UniProt P29089+P25095+P35351); experiment: Inhibitory effect on AII (100 ng/kg iv)-induced pressor response after administration at 0.1 mg/kg po in conscious male Sprague-Dawley rats at 0.5 h.; format: functional, organism-based; set-up: dose 0.1 mg/kg
observedProperty: inhibition (%)

CCOc1nc2cccc(C(=O)O)c2n1Cc1ccc(-c2ccccc2-c2nnn[nH]2)cc1 ... 7
CCCC(=O)OCOC(=O)c1cccc2nc(OCC)n(Cc3ccc(-c4ccccc4-c4nn[nH]n4)cc3)c12 ... 100

P: CCOc1nc2cccc(C(=O)OCOC(=O)C(C)C)c2n1Cc1ccc(-c2ccccc2-c2nn[nH]n2)cc1
Q: CCOc1nc2cccc(C(=O)OCOC(=O)c3ccccc3)c2n1Cc1ccc(-c2ccccc2-c2nn[nH]n2)cc1
Task item: Kindly compare P with Q and tell me which has the lower inhibition figure. # answer = label of selected item
Reply: Q
(Q: -4%, P: 80%)

###

assay: Tested for Half- life in rat plasma homogenate (10%) at 37 degree Centigrade; type: ADME
observedProperty: half-life (min)

CCCCc1nc2cccc(C(=O)OCOC(=O)C(C)(C)C)c2n1Cc1ccc(-c2ccccc2-c2nn[nH]n2)cc1 ... 0.69
CCOc1nc2cccc(C(=O)OC(C)OC(=O)OC3CCCCC3)c2n1Cc1ccc(-c2ccccc2-c2nnn[nH]2)cc1 (centres undefined) ... 2.73

P: CCCCc1nc2cccc(C(=O)O)c2n1Cc1ccc(-c2ccccc2-c2nnn(COC(=O)C(C)(C)C)n2)cc1.CCCCc1nc2cccc(C(=O)O)c2n1Cc1ccc(-c2ccccc2-c2nnnn2COC(=O)C(C)(C)C)cc1
Q: CCOc1nc2cccc(C(=O)OCOC(=O)C(C)(C)C)c2n1Cc1ccc(-c2ccccc2-c2nn[nH]n2)cc1
Task item: Compare the recorded half-life of P and Q ; state which is larger. # answer = label of selected item
Reply: P

###

target: Angiotensin II receptor (Rattus norvegicus) (UniProt P29089+P25095+P35351); assay: Inhibitory activity on AII (100 ng/kg iv)-induced pressor response after administration at 0.1 mg/kg po in conscious male Sprague-Dawley rats at 2 h.; type: functional, organism-based; design: dose 0.1 mg/kg
observedProperty: inhibition (%)

CCOc1nc2cccc(C(=O)OC(C)OC(=O)OC3CCCCC3)c2n1Cc1ccc(-c2ccccc2-c2nn[nH]n2)cc1 (centres undefined) ... 80
CCOC(=O)OC(C)OC(=O)c1cccc2nc(OCC)n(Cc3ccc(-c4ccccc4-c4nn[nH]n4)cc3)c12 (centres undefined) ... 95

a: CCOc1nc2cccc(C(=O)O)c2n1Cc1ccc(-c2ccccc2-c2nnn[nH]2)cc1
b: CCOc1nc2cccc(C(=O)OCOC(C)=O)c2n1Cc1ccc(-c2ccccc2-c2nn[nH]n2)cc1
Task item: Kindly compare a with b and tell me which has the lower inhibition figure. # answer = label of selected item
Reply: a
(a: 51%, b: 79%)

###

target: Angiotensin II receptor (Rattus norvegicus) (UniProt P29089+P25095+P35351); assay: Inhibitory activity on AII (100 ng/kg iv)-induced pressor response at 0.1 mg/kg po in conscious male Sprague-Dawley rats at 1 h.; assay type: functional, organism-based; parameters: dose 0.1 mg/kg
observedProperty: inhibition (%)

CCOc1nc2cccc(C(=O)OC(C)OC(=O)OC(C)C)c2n1Cc1ccc(-c2ccccc2-c2nn[nH]n2)cc1 (stereo unspecified) ... 91
CCOc1nc2cccc(C(=O)OCOC(C)=O)c2n1Cc1ccc(-c2ccccc2-c2nn[nH]n2)cc1 ... 84
CCOc1nc2cccc(C(=O)OC(C)OC(=O)OC3CCC3)c2n1Cc1ccc(-c2ccccc2-c2nn[nH]n2)cc1 (stereo unspecified) ... 77
CCOc1nc2cccc(C(=O)OC(C)OC(=O)OC(CC)CC)c2n1Cc1ccc(-c2ccccc2-c2nn[nH]n2)cc1 (stereo unspecified) ... 72
CCCCc1nc2cccc(C(=O)OCc3oc(=O)oc3C)c2n1Cc1ccc(-c2ccccc2-c2nn[nH]n2)cc1 ... 63
CCOc1nc2cccc(C(=O)OCOC(=O)C(C)(C)C)c2n1Cc1ccc(-c2ccccc2-c2nn[nH]n2)cc1 ... 77

###

test: Tested for half- life in rat small intestine homogenate (1%); type: ADME
observedProperty: half-life (min)

CCOc1nc2cccc(C(=O)OC(C)OC(=O)OC3CCCCC3)c2n1Cc1ccc(-c2ccccc2-c2nnn[nH]2)cc1 (centres undefined) [CANDESARTAN CILEXETIL] ... 4.92

A: CCCCc1nc2cccc(C(=O)O)c2n1Cc1ccc(-c2ccccc2-c2nnn(COC(=O)C(C)(C)C)n2)cc1.CCCCc1nc2cccc(C(=O)O)c2n1Cc1ccc(-c2ccccc2-c2nnnn2COC(=O)C(C)(C)C)cc1
B: CCCCc1nc2cccc(C(=O)OCOC(=O)C(C)(C)C)c2n1Cc1ccc(-c2ccccc2-c2nn[nH]n2)cc1
Task item: Kindly compare A with B and tell me which has the lower half-life figure. # answer = label of selected item
Reply: B
(B: 1.08 min, A: 22.7 min)

###

molecular target: Angiotensin II receptor (Rattus norvegicus) (UniProt P29089+P25095+P35351); test: Inhibitory activity on AII (100 ng/kg iv)-induced pressor response after administration at 0.1 mg/kg po in conscious male Sprague-Dawley rats at 3 h.; assay type: functional, organism-based; parameters: dose 0.1 mg/kg
observedProperty: inhibition (%)

CCCCc1nc2cccc(C(=O)OCCN3CCOCC3)c2n1Cc1ccc(-c2ccccc2-c2nn[nH]n2)cc1 ... 96
CCOc1nc2cccc(C(=O)OC(C)OC(=O)OC(CC)CC)c2n1Cc1ccc(-c2ccccc2-c2nn[nH]n2)cc1 (centres undefined) ... 84
CCOc1nc2cccc(C(=O)OC(C)OC(C)=O)c2n1Cc1ccc(-c2ccccc2-c2nn[nH]n2)cc1 (centres undefined) ... 86
CCOc1nc2cccc(C(=O)OCOC(=O)OC(C)C)c2n1Cc1ccc(-c2ccccc2-c2nn[nH]n2)cc1 ... 72

###

molecular target: Angiotensin II receptor (Rattus norvegicus) (UniProt P29089+P25095+P35351); assay: Inhibitory activity on AII (100 ng/kg iv)-induced pressor response after administration at 0.1 mg/kg po in conscious male Sprague-Dawley rats at 5 h.; type: functional, organism-based; set-up: dose 0.1 mg/kg
observedProperty: inhibition (%)

Previously resolved entries follow.
CCCC(=O)OCOC(=O)c1cccc2nc(OCC)n(Cc3ccc(-c4ccccc4-c4nn[nH]n4)cc3)c12 ... 54
CCOc1nc2cccc(C(=O)OC(C)OC(=O)OC(CC)CC)c2n1Cc1ccc(-c2ccccc2-c2nn[nH]n2)cc1 (centres undefined) ... 63

A: CCOc1nc2cccc(C(=O)OC(C)OC(=O)OC3CCCCC3)c2n1Cc1ccc(-c2ccccc2-c2nn[nH]n2)cc1 (centres undefined)
B: CCOc1nc2cccc(C(=O)OCOC(=O)C(C)C)c2n1Cc1ccc(-c2ccccc2-c2nn[nH]n2)cc1
Task item: Compare the recorded inhibition of A and B ; state which is larger. # answer = label of selected item
Reply: A

###

target: Angiotensin II receptor (Rattus norvegicus) (UniProt P29089+P25095+P35351); test: Inhibitory activity on AII (100 ng/kg iv)-induced pressor response after administration at 0.1 mg/kg po in conscious male Sprague-Dawley rats at 2 h.; assay type: functional, organism-based; set-up: dose 0.1 mg/kg
observedProperty: inhibition (%)

CCCCc1nc2cccc(C(=O)OC(C)OC(=O)OC3CCCCC3)c2n1Cc1ccc(-c2ccccc2-c2nn[nH]n2)cc1 (stereo not drawn) ... 84

1: CCCCc1nc2cccc(C(=O)OCCN(C)C)c2n1Cc1ccc(-c2ccccc2-c2nn[nH]n2)cc1
2: CCOc1nc2cccc(C(=O)OC(C)OC(C)=O)c2n1Cc1ccc(-c2ccccc2-c2nn[nH]n2)cc1 (stereo not drawn)
Task item: Compare the recorded inhibition of 1 and 2 ; state which is larger. # answer = label of selected item
Reply: 2
(2: 92%, 1: 27%)

###

target: Angiotensin II receptor (Rattus norvegicus) (UniProt P29089+P25095+P35351); assay: Inhibitory effect on AII (100 ng/kg iv)-induced pressor response after administration at 0.1 mg/kg po in conscious male Sprague-Dawley rats at 0.5 h.; format: functional, organism-based; set-up: dose 0.1 mg/kg
observedProperty: inhibition (%)

Previously resolved entries follow.
CCOc1nc2cccc(C(=O)OCOC(=O)CC)c2n1Cc1ccc(-c2ccccc2-c2nn[nH]n2)cc1 ... 76
CCCCc1nc(Cl)c(CO)n1Cc1ccc(-c2ccccc2-c2nnn[nH]2)cc1 ... 5
CCOc1nc2cccc(C(=O)OC(C)OC(=O)OC(C)C)c2n1Cc1ccc(-c2ccccc2-c2nn[nH]n2)cc1 (stereo not drawn) ... 70
CCOc1nc2cccc(C(=O)OCOC(=O)OC(C)C)c2n1Cc1ccc(-c2ccccc2-c2nn[nH]n2)cc1 ... 23
CCOc1nc2cccc(C(=O)OCOC(=O)C(C)(C)C)c2n1Cc1ccc(-c2ccccc2-c2nn[nH]n2)cc1 ... 42
CCOc1nc2cccc(C(=O)OCOC(=O)OC3CCCC3)c2n1Cc1ccc(-c2ccccc2-c2nn[nH]n2)cc1 ... 5

a: CCOc1nc2cccc(C(=O)OCOC(=O)OC3CCCCC3)c2n1Cc1ccc(-c2ccccc2-c2nn[nH]n2)cc1
b: CCCCc1nc2cccc(C(=O)OCc3ccncc3)c2n1Cc1ccc(-c2ccccc2-c2nn[nH]n2)cc1
Task item: Compare the recorded inhibition of a and b ; state which is larger. # answer = label of selected item
Reply: b
(b: 4%, a: 1%)
